Listing of entries alongside the reported protein stability index.
B1: ZNF449 (parent)
chain: TLHQRTHTEERPFKCNYCGKSFRQ

# Variants of: B1
# Measurement protocol: protein stability index of a GFP-peptide fusion (GPS, HEK-293T) (PSI 1-6); higher = more stable;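 further: lentivirally expressed fusions sorted by FACS into six bins by GFP to DsRed ratio, PSI derived from sequencing read proportions per bin multiplied by bin number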
# Measurement conditions: c terminus: a fixed tail appended
Just the number, please, no unit attached.

See these solved cases before continuing.
1. Q4P :: 2.92
2. Q24E :: 2.88
3. R5I :: 1.97
4. C18H :: 2.96

INPUT: # protein stability index lookup, item "Y17S"
OUTPUT: 2.55

INPUT: So what does the record say about protein stability index for "N16K" ?
OUTPUT: 2.76

INPUT: Please give the measured protein stability index for this variant: "C18Q"
OUTPUT: 2.26

INPUT: Given "K14L" , state its recorded protein stability index.
OUTPUT: 1.73

INPUT: Entry under review: "R11I" . Reported protein stability index?
OUTPUT: 2.08

INPUT: Reported protein stability index, variant "E10N" : ____
OUTPUT: 2.48

INPUT: Item under review: "E10R" . Reported protein stability index?
OUTPUT: 1.81
